tested on: Trypanosoma brucei rhodesiense; assay: […] activity against Trypanosoma brucei rhodesiense Wellcome CT infected in ICR/HA mouse assessed as curated mouse at 424 mg/kg, sc treated within 2 hrs of parasite infection measured up to 30 days; assay type: functional, organism-based; design: dose 424 mg/kg
Active and inactive are the calls of the source. The rule behind the calls is not given here.
// classify into active, inactive

INSERT INTO assay_data (compound, system_name, label_class) VALUES
  ('[Br-].c1ccc([P+](Cc2cccc3cccnc23)(c2ccccc2)c2ccccc2)cc1', 'Trypanosoma brucei rhodesiense', 'inactive'),
  ('CCCCCCCCCCCC[P+](c1ccccc1)(c1ccccc1)c1ccccc1', 'Trypanosoma brucei rhodesiense', 'inactive'),
  ('[Br-].c1ccc([P+](c2ccccc2)(c2ccccc2)c2ccccc2)cc1 [TETRAPHENYLPHOSPHONIUM BROMIDE]', 'Trypanosoma brucei rhodesiense', 'inactive'),
  ('Cc1ccccc1[P+](Cc1ccccc1)(c1ccccc1C)c1ccccc1C.[Cl-]', 'Trypanosoma brucei rhodesiense', 'inactive');

### Prompt What outcome does the record of this test show for [I-].c1ccc(CC(c2ccccc2)[P+](c2ccccc2)(c2ccccc2)c2ccccc2)cc1 (centres undefined) ?
### Response inactive

### Prompt Also need N=C(N)c1ccc(/C=C/c2ccc(C(=N)N)cc2)cc1 , thanks.
### Response active

----------
test system: Trypanosoma brucei rhodesiense; test: […] activity against Trypanosoma brucei rhodesiense Wellcome CT infected in ICR/HA mouse assessed as curated mouse at 424 mg/kg, po treated within 2 hrs of parasite infection measured up to 30 days; assay type: functional, organism-based; set-up: dose 424 mg/kg
Active and inactive are the calls of the source. The rule behind the calls is not given here.
Pick from active, inactive when you respond.

INSERT INTO measurements (compound, label_class) VALUES
  ('CC(C)(C)c1cc(C[P+](c2ccccc2)(c2ccccc2)c2ccccc2)cc(C(C)(C)C)c1O.[Br-]', 'inactive'),
  ('[I-].c1ccc(CC(c2ccccc2)[P+](c2ccccc2)(c2ccccc2)c2ccccc2)cc1 (centres undefined)', 'inactive'),
  ('[Br-].c1ccc([P+](c2ccccc2)(c2ccccc2)c2ccccc2)cc1 [TETRAPHENYLPHOSPHONIUM BROMIDE]', 'inactive'),
  ('FC(F)(F)c1ccc(C[P+](c2ccccc2)(c2ccccc2)c2ccccc2)cc1.[Cl-]', 'inactive');

### Prompt Query: recorded result category for Cc1ccc([P+](Cc2ccccc2)(c2ccccc2)c2ccccc2)cc1.[Cl-] in this test
### Response inactive

### Prompt Query N=C(N)c1ccc(/C=C/c2ccc(C(=N)N)cc2)cc1 [STILBAMIDINE] next
### Response active

### Prompt Same for Clc1ccc(OC[P+](c2ccccc2)(c2ccccc2)c2ccccc2)cc1.[Cl-]
### Response inactive

### Prompt Same lookup for Cc1ccccc1C[P+](c1ccccc1)(c1ccccc1)c1ccccc1 , please.
### Response inactive

### Prompt And what about the compound Cc1ccccc1[P+](Cc1ccccc1)(c1ccccc1C)c1ccccc1C.[Cl-] ?
### Response inactive

----------
tested on: Trypanosoma brucei rhodesiense; assay: […] activity against Trypanosoma brucei rhodesiense Wellcome CT infected in ICR/HA mouse assessed as curated mouse at 106 mg/kg, po treated within 2 hrs of parasite infection measured up to 30 days; type: functional, organism-based; parameters: dose 106 mg/kg
The source made the active and inactive calls. The rule behind the calls is not given here.
Hello, when you answer, please use one of the following outcomes: active, inactive

INSERT INTO measurements (structure_notation, system_name, label_class) VALUES
  ('CC(C)(C)c1cc(C[P+](c2ccccc2)(c2ccccc2)c2ccccc2)cc(C(C)(C)C)c1O.[Br-]', 'Trypanosoma brucei rhodesiense', 'inactive');

### Prompt Look up the recorded call for Clc1ccccc1C[P+](c1ccccc1)(c1ccccc1)c1ccccc1.[Cl-] in this test.
### Response inactive

### Prompt Next record, please: Cc1cccc([P+](Cc2ccccc2)(c2cccc(C)c2)c2cccc(C)c2)c1.[Cl-]
### Response inactive

### Prompt Field entry: N=C(N)c1ccc(/C=C/c2ccc(C(=N)N)cc2)cc1
### Response active

### Prompt Another molecule to check: Cc1ccccc1C[P+](c1ccccc1)(c1ccccc1)c1ccccc1
### Response inactive

### Prompt // next record Cc1ccccc1[P+](Cc1ccccc1)(c1ccccc1C)c1ccccc1C.[Cl-]
### Response inactive
